Collected γCMC (surface tension at the CMC) values appear next to each entry.
# Assay Name: SFT for CMC determination (surface tension, Wilhelmy plate technique)
# Assay type: physicochemical
# Applied Conditions: air/water interface, (20.0±0.5)° C.
# Description: SFT for CMC determination. The surface activity of the compounds of the invention in solution at the air/water interface was determined using a K100 tensiometer (Kruss, Hamburg, Germany). […]
Could you give me the number in mN/m? Just the number is fine.

// known answers, use as guide
Compound	γCMC (surface tension at the CMC) (mN/m)
OC[C@H]1O[C@H](O[C@H]2[C@H](O)[C@@H](O)[C@H](OCCCC(F)(F)C(F)(F)C(F)(C(F)(F)F)C(F)(F)F)O[C@@H]2CO)[C@H](O)[C@@H](O)[C@@H]1O	22.5
O=C(NCCCC1(F)C(F)(F)C(F)(F)C(F)(F)C(F)(F)C1(F)F)C(O)[C@H](O)[C@H](O[C@@H]1OC(CO)[C@H](O)[C@H](O)C1O)C(O)CO (some centres unmarked)	24.4
OC[C@H]1O[C@H](O[C@H]2[C@H](O)[C@@H](O)[C@H](OCCCCCC3(F)C(F)(F)C(F)(F)C(F)(F)C(F)(F)C3(F)F)O[C@@H]2CO)[C@H](O)[C@@H](O)[C@@H]1O	23.16

Q. What value of measured γCMC (surface tension at the CMC) is listed for OC[C@H]1O[C@H](O[C@H]2[C@H](O)[C@@H](O)[C@H](OCCCC(F)(F)C(F)(F)C(F)(F)C(F)(F)C(F)(C(F)(F)F)C(F)(F)F)O[C@@H]2CO)[C@H](O)[C@@H](O)[C@@H]1O ?
A. 17.4

Q. What value of measured γCMC (surface tension at the CMC) is listed for OC[C@H]1O[C@H](O[C@H]2[C@H](O)[C@@H](O)[C@H](OCCCCCC(F)(F)C(F)(F)C(F)(C(F)(F)F)C(F)(F)F)O[C@@H]2CO)[C@H](O)[C@@H](O)[C@@H]1O ?
A. 22.1

Q. What value of measured γCMC (surface tension at the CMC) is listed for OC[C@H]1O[C@H](O[C@H]2[C@H](O)[C@@H](O)[C@H](OCCCC3(F)C(F)(F)C(F)(F)C(F)(F)C(F)(F)C3(F)F)O[C@@H]2CO)[C@H](O)[C@@H](O)[C@@H]1O ?
A. 23.9

Q. What value of measured γCMC (surface tension at the CMC) is listed for C[N+](C)(CCCCCC1(F)C(F)(F)C(F)(F)C(F)(F)C(F)(F)C1(F)F)CCCS(=O)(=O)[O-] ?
A. 23.7

Q. What value of measured γCMC (surface tension at the CMC) is listed for OC[C@H]1O[C@H](O[C@H]2[C@H](O)[C@@H](O)[C@H](OCCCCC3(F)C(F)(F)C(F)(F)C(F)(F)C(F)(F)C3(F)F)O[C@@H]2CO)[C@H](O)[C@@H](O)[C@@H]1O ?
A. 22.7
